Values compiled from the Deep4Chem optical property database.

assay: solvent given as SMILES; conditions: in C1CCOC1
Catalogue of emission maximum values

molecule_smiles: COC(=O)/C=C/c1ccc2ccc3cccc4ccc1c2c34
emission maximum [nm]: 425.5
//
molecule_smiles: CCC1(CC)c2cc(N(c3ccccc3)c3ccccc3)ccc2-c2c1c1c(c3c2C(CC)(CC)c2cc(N(c4ccccc4)c4ccccc4)ccc2-3)C(CC)(CC)c2cc(N(c3ccccc3)c3ccccc3)ccc2-1
emission maximum [nm]: 390
//
molecule_smiles: CCCCCCc1ccc2c(/C=N/c3cc(/N=C/c4c(O)ccc5cc(CCCCCC)ccc45)cc(/N=C/c4c(O)ccc5cc(CCCCCC)ccc45)c3)c(O)ccc2c1
emission maximum [nm]: 509
//
molecule_smiles: CC1(C)Nc2ccccc2-c2[nH]c3ccccc3c(=O)c21
emission maximum [nm]: 483
//
molecule_smiles: COc1cccc(C2=c3c(c4ccc(C(C)(C)C)cc4c4cc(C(C)(C)C)ccc34)=[N+]3C2=C(c2ccccc2)c2c(-c4cccc(OC)c4)c4c5ccc(C(C)(C)C)cc5c5cc(C(C)(C)C)ccc5c4n2[B-]3(F)F)c1
emission maximum [nm]: 737
//
molecule_smiles: CCN(CC)c1ccc(-c2cc3c(s2)c(C(=O)OC)cc(=O)n3C)cc1
emission maximum [nm]: 543
//
molecule_smiles: c1ccc(-c2nc(-c3cc(-n4c5ccccc5c5ccccc54)cc(-n4c5ccccc5c5ccccc54)c3)nc(-c3cc(-n4c5ccccc5c5ccccc54)cc(-n4c5ccccc5c5ccccc54)c3)n2)cc1
emission maximum [nm]: 595.92
//
molecule_smiles: FC(F)(F)C(F)(F)C(F)(F)c1nc2c(-c3ccsc3)cc3c4cc(-c5ccsc5)c5nc(C(F)(F)C(F)(F)C(F)(F)F)nc6c(-c7ccsc7)cc(c7cc(-c8ccsc8)c(n1)c2c37)c4c56
emission maximum [nm]: 574
//
molecule_smiles: N#Cc1c(N2CCCC2)cc(-c2ccccc2)c2c1-c1ccccc1C2=O
emission maximum [nm]: 527
//
molecule_smiles: CCOC(=O)COc1ccc(/C=C/C2=C3c4ccccc4C(c4[nH]c(C)cc4C)=[N+]3[B-](F)(F)n3c(/C=C/c4ccc(OCC(=O)OCC)cc4)cc(C)c32)cc1
emission maximum [nm]: 730
//
molecule_smiles: C[Si](C)(C)c1ccc(-c2ccc(-c3ccc(-c4ccc(-c5ccc([Si](C)(C)C)s5)cc4)c4nsnc34)cc2)s1
emission maximum [nm]: 540
//
molecule_smiles: N#Cc1ccc2c(c1)CCc1nc(-c3ccc([N+](=O)[O-])cc3)c3c(c1-2)CCc1cc(C#N)ccc1-3
emission maximum [nm]: 469
//
molecule_smiles: CCC(CC)COC1=CC2=C3c4cc(OCC(CC)CC)c(-c5ccccc5)n4[B-](F)(F)[n+]4c3n(c3cc(C(C)(C)C)ccc34)[B-](F)(F)[N+]2=C1c1ccccc1
emission maximum [nm]: 734
//
molecule_smiles: CC1(C)CC(/C=C/c2ccc(-n3cncn3)cc2)=CC(=C(C#N)C#N)C1
emission maximum [nm]: 520

----------
Catalogue of emission maximum values
test: solvent given as SMILES; settings: in ClCCl
readout_label: emission maximum (nm)

compound: CCN(CC)c1ccc2cc(-c3nc4c5ccccc5c5ccccc5c4n3-c3ccc(C(C)(C)C)cc3)c(=O)oc2c1
value_reported: 492
//
compound: COc1ccc(C2=CC(c3ccccc3)=C(c3ccccc3)C2)c2ccccc12
value_reported: 479
//
compound: CCN(CC)c1ccc2cc(-c3csc(NC(C)=O)c3C#N)c(=O)oc2c1
value_reported: 463
//
compound: CN(C)c1ccc2c3c(c(=O)oc2c1)C=c1cc2c(cc1O3)=[N+](CCC(=O)O)CCC2
value_reported: 638
//
compound: COc1ccc(C2=CC3=C(c4c(C)cc(C)cc4C)c4cc(-c5ccc(OC)cc5)c(-c5ccc(OC)cc5)n4[B-](F)(F)[N+]3=C2c2ccc(OC)cc2)cc1
value_reported: 672
//
compound: F[B-]1(F)n2c(c3cc4ccccc4cc3c2-c2ccccc2)C=C2c3cc4ccccc4cc3C(c3ccccc3)=[N+]21
value_reported: 785
//
compound: FC(F)(F)C(F)(F)C(F)(F)C(F)(F)C(F)(F)C(F)(F)CCOc1nnc(Cl)nn1
value_reported: 566
//
compound: Cc1cc(C)c(B(c2ccccc2N(c2ccccc2)c2ccccc2)c2c(C)cc(C)cc2C)c(C)c1
value_reported: 518.5
//
compound: FC(F)(F)c1c(-n2c3ccccc3c3ccccc32)c(-n2c3ccccc3c3ccccc32)c(-n2c3ccccc3c3ccccc32)c(-n2c3ccccc3c3ccccc32)c1-n1c2ccccc2c2ccccc21
value_reported: 481
//
compound: CC(C)[Si](C#Cc1ccc(C#C[Si](C(C)C)(C(C)C)C(C)C)c2nc3c4ccccc4c(=O)c4ccccc4c3nc12)(C(C)C)C(C)C
value_reported: 455
//
compound: COc1ccc(/C=C/C2=[O+][B-](F)(F)OC(/C=C/c3ccc(OC)cc3)=C2c2cccc(OC)c2)cc1
value_reported: 556
//
compound: CN(C)c1ccc(/C=C/c2cccnn2)cc1
value_reported: 480
//
compound: CNc1ncc2nc(C(=O)OC)n(Cc3ccccc3)c2n1
value_reported: 403
//
compound: COC1=[N+]2C(=C(c3ccccc3)c3ccc(OC)n3[B-]2(F)F)C=C1
value_reported: 630
//
compound: CC(C)(C)c1ccc(C2=C(c3ccc(C(C)(C)C)cc3)C(c3ccc(C(C)(C)C)cc3)=[N+]3C2=C(c2ccccc2)c2c(-c4ccc(C(C)(C)C)cc4)c(-c4ccc(C(C)(C)C)cc4)c(-c4ccc(C(C)(C)C)cc4)n2[B-]3(F)F)cc1
value_reported: 636
//
compound: CC(C)(C)c1ccc(-c2sc3c(-c4ccc(C(C)(C)C)cc4)c4n(c3c2-c2ccc(C(C)(C)C)cc2)[B-](F)(F)[N+]2=Cc3c(-c5ccc(C(C)(C)C)cc5)c5sc(-c6ccc(C(C)(C)C)cc6)c(-c6ccc(C(C)(C)C)cc6)c5n3[B-](F)(F)[N+]2=C4)cc1
value_reported: 631
//
compound: c1ccc(-c2nc(-c3ccc(N4c5ccccc5Oc5ccccc54)cc3)nn2-c2ccc(N3c4ccccc4Oc4ccccc43)cc2)nc1
value_reported: 490
//
compound: CCCCCCc1ccsc1-c1ccc(-c2sc(C(=O)O)cc2CCCCCC)s1
value_reported: 479
//
compound: CCCCn1c(-c2ccc(-c3nnc(-c4ccccc4)o3)cc2)nc(-c2ccccc2)c1-c1ccccc1
value_reported: 441
//
compound: COC(=O)c1cc(=O)n(C)c2cc(-c3cccc(OC)c3)sc12
value_reported: 464
//
compound: ClP1(Cl)=NP(Cl)(Cl)=NP(Cl)(Oc2ccc3ccc4cccc5ccc2c3c45)=N1 (configuration not stated)
value_reported: 417
//
compound: CCCCn1c(-c2ccc(-c3nnc(-c4ccc5ccccc5c4)o3)cc2)nc(-c2ccccc2)c1-c1ccccc1
value_reported: 445
//
compound: CC(=O)c1c(N[C@H](C(=O)O)C(C)C)c2ccc(N(C)C)cc2oc1=O
value_reported: 446
//
compound: Cc1ccc(-c2ccc3ccc4cc(C(C)(C)C)cc5ccc2c3c45)cc1
value_reported: 384
//
compound: Cc1cccc(C)c1N1C(c2ccccc2)=Cc2cccc[n+]2[B-]1(F)F
value_reported: 453
//
compound: COc1cc2c(cc1OC)C1=C[C@H](c3ccc(C)cc3)C3(C(C#N)=C(C#N)N1CC2)c1ccccc1-c1ccccc13
value_reported: 403
//
compound: Cc1ccccc1N1c2c(sc3ccccc23)Sc2sc3ccccc3c21
value_reported: 583
//
compound: Cc1ccc(C(=O)/C=C2\C(=O)Nc3ccccc32)cc1C
value_reported: 418
//
compound: CC1(C)c2ccccc2-c2cc3c(cc21)c1ccccc1n3-c1cccnc1
value_reported: 373
//
compound: CC(C)[Si]1(C(C)C)c2cc(N(C)C)ccc2-c2ccc(C(F)(F)F)cc21
value_reported: 423
//
compound: CCCCN(CCCC)c1ccc(C#Cc2cc(C#Cc3ccc(N(CCCC)CCCC)cc3)c(C#Cc3ccc([N+](=O)[O-])cc3)cc2C#Cc2ccc([N+](=O)[O-])cc2)cc1
value_reported: 552
//
compound: CC(C)[Si](C#Cc1ccc(C#Cc2c3cc4ccccc4cc3c(C#C[Si](C(C)C)(C(C)C)C(C)C)c3cc4ccccc4cc23)cc1)(C(C)C)C(C)C
value_reported: 668

----------
Catalogue of emission maximum values
experiment: solvent given as SMILES; conditions: in O=P(c1ccccc1)(c1ccccc1)c1ccc2oc3ccc(P(=O)(c4ccccc4)c4ccccc4)cc3c2c1
readout_label: emission maximum (nm)

molecule_smiles: Cc1ccc2c(c1)C1(c3ccccc3Oc3ccccc31)c1cc(C)ccc1N2c1ccc(-c2ncccn2)cc1
value_reported: 458

molecule_smiles: c1ccc(-c2nc(-c3ccccc3)nc(-c3ccc(-n4c5ccccc5c5ccc6c7ccccc7n(-c7ccccc7)c6c54)cc3)n2)cc1
value_reported: 477

molecule_smiles: c1ccc(-c2nc(-c3ccccc3)nc(-c3ccc(-n4c5ccccc5c5cc6c(cc54)c4ccccc4n6-c4ccccc4)cc3)n2)cc1
value_reported: 511

molecule_smiles: Cc1ccc2c(c1)C(c1ccccc1)(c1ccccc1)c1cc(C)ccc1N2c1cc(C(C)C)c(B2c3ccccc3Sc3ccccc32)c(C(C)C)c1
value_reported: 485
